This section presents binders with their documented Inhibitory rate (%) values.
target_of_assay: T1, PCSK9 protein (UniProt Q8NBP7 31-692, limits assumed)
T1 construct: Kit reagent; also called proprotein convertase subtilisin/kexin type 9
experiment: PCSK9-LDLR in vitro binding assay kit, OD450/540; peptide 10 µM; inhibition of PCSK9 binding to LDLR
Bridge positions count the residues as written; N and C are the ends. Ends that are not written are not given here.

- binder: "WEEALDWVGFCTYSIPPQCYGTVFTS (disulfide 11-19 (inferred), Contains an anti-chymotrypsin scaffold, with a disulfide bond between its two Cys) [PCSK9_5CH]"
  Inhibitory rate (%): 99.4
- binder: "WEEYLDYVGFCTYSIPPQCYGTVFTS (disulfide 11-19 (inferred), Contains an anti-chymotrypsin scaffold, with a disulfide bond between its two Cys) [PCSK9_6CH]"
  Inhibitory rate (%): 75.3
- binder: "TVFTSGICTASIPPICQWEEYLDWV (disulfide 8-16 (inferred), Contains an anti-elastase scaffold, with a disulfide bond between its two Cys) [PCSK9_9EC]"
  Inhibitory rate (%): 94.3
- binder: "TVFTSWEEALDWVGICTASIPPICQ-OH (disulfide 16-24 (inferred), Contains an anti-elastase scaffold, with a disulfide bond between its two Cys) [PCSK9_2EC]"
  Inhibitory rate (%): 73.1
